These data points were gathered from ChEMBL document CHEMBL1137061.

# experimental-target: Muscarinic acetylcholine receptor
# protocol-description: Inhibition of [3H]N-methylscopolamine binding to muscarinic receptor of rat cortex membranes
# Assay type: cell membranes, Membrane
Answer each item with its documented Ki.

stdin: Item CC(C)=NOC[C@@H]1CCCN1C has what recorded Ki?
stdout: > 50 µM

stdin: Item C/C=N\OC[C@@H]1CCCN1C has what recorded Ki?
stdout: > 50 µM

stdin: Item CC=NOC[C@@H]1CCCN1C has what recorded Ki?
stdout: > 50 µM

stdin: Item CC(C)O/N=C/[C@@H]1CCCN1C has what recorded Ki?
stdout: 17 µM

###

observation-type: Ki

stdin: Query the reported Ki for Neuronal acetylcholine receptor subunit alpha-7 (Rattus norvegicus, UniProt Q05941); item: C/C=N\OC[C@@H]1CCCN1C
stdout: > 50 µM

stdin: Query the reported Ki for Neuronal acetylcholine receptor subunit alpha-7 (Rattus norvegicus, UniProt Q05941); item: CC(C)O/N=C/[C@@H]1CCCN1C
stdout: > 50 µM

stdin: Query the reported Ki for Neuronal acetylcholine receptor subunit alpha-7 (Rattus norvegicus, UniProt Q05941); item: Cc1cc([C@@H]2CCCN2C)on1
stdout: 1.2 µM

stdin: Query the reported Ki for Neuronal acetylcholine receptor subunit alpha-7 (Rattus norvegicus, UniProt Q05941); item: CC=NOC[C@@H]1CCCN1C
stdout: > 50 µM

stdin: Query the reported Ki for Neuronal acetylcholine receptor subunit alpha-7 (Rattus norvegicus, UniProt Q05941); item: CC(C)O/N=C/[C@H]1CCCN1C
stdout: 47 µM

stdin: Query the reported Ki for Neuronal acetylcholine receptor subunit alpha-7 (Rattus norvegicus, UniProt Q05941); item: CC(C)=NOC[C@@H]1CCCN1C
stdout: 49 µM
